# Test system: paddy rice
# assayExplanation: Experiment 4 flooded soil treatment: injury to paddy rice
# Format: in vivo
# Design: key: 5: completely killed; 4: seriously injured; 3: considerably injured; 2: somewhat injured; 1: slightly injured; 0: not injured (normally grown)
# reportedConditions: 3.13 g/10a, 4 weeks after treatment
Quick list: Injury of Paddy per entry.
readoutLabel: Injury of Paddy

{"compound": "COCCOC(=O)C1=C(C(=O)N(C(=O)c2cccnc2)c2cc(C(=O)OC)c(Cl)cc2F)CCCC1 [compound 65]", "value": 0}
{"compound": "C#CC(C)Oc1cc(N(C(=O)C2=C(C(=O)OCCC)CCCC2)C(=O)c2cccnc2)c(F)cc1Cl (centres unmarked) [Compound No. 58]", "value": 0}
{"compound": "C#CC(C)Oc1cc(N(C(=O)C2=C(C(=O)OC)CCCC2)C(=O)c2cccnc2)c(Cl)cc1Cl (centres unmarked) [compound 70]", "value": 0}
{"compound": "C#CC(C)Oc1cc(N(C(=O)C2=C(C(=O)OCCOC)CCCC2)C(=O)c2cccnc2)c(Cl)cc1Cl (centres unmarked) [compound 71]", "value": 0}
{"compound": "COC(=O)C1=C(C(=O)N(C(=O)c2cccnc2)c2cc(OC(C)C)c(Cl)cc2F)CCCC1 [compound 56]", "value": 0.5}
{"compound": "C#CC(C)Oc1cc(N(C(=O)C2=C(C(=O)OCCOC)CCCC2)C(=O)c2ccc(Cl)nc2)c(F)cc1Cl (centres unmarked) [compound 69]", "value": 0.5}
{"compound": "C#CC(C)Oc1cc(N(C(=O)C2=C(C(=O)OC)CCCC2)C(=O)c2cncc(C(=O)OC)c2)c(F)cc1Cl (centres unmarked) [compound 67]", "value": 0.5}
{"compound": "CCCCOC(=O)c1cc(N(C(=O)C2=C(C(=O)OC)CCCC2)C(=O)c2cccnc2)c(F)cc1Cl [compound 66]", "value": 0}
